Test system: TAB165
Assay: qHTS profiling for inhibitors of Plasmodium falciparum proliferation (AID 504749); note: nearly all actives have a fitted effect of over 60% in size
Settings: P. falciparum in erythrocytes, SYBR Green DNA, 72 h; series mostly up to 28.7 µM
Inconclusive results are not listed. The source made the active and inactive calls. Calls come from the whole dose curve; as a rule, active = well fitted inhibition curve with a large enough effect; inconclusive = small, poorly fitted or top-dose-only effect; inactive = flat fitted curve, though single readings scatter.
// classify into YES = active, NO = inactive

Reference set, count: 3
[[record]]
molecule = "NC(=O)NC(=O)Cc1ccccc1"
classification = "NO"

[[record]]
molecule = "O=S(=O)(O)c1cc(I)c(O)c2ncccc12"
classification = "NO"

[[record]]
molecule = "CCCCOc1cc(C(=O)OCCN(CC)CC)ccc1N"
classification = "NO"


How was O=C(O)COc1nn(Cc2ccccc2)c2ccccc12 classified in this test?
NO

# outcome recorded in this test, key = CCCn1cnc2c1c(=O)n(CCCCC(C)=O)c(=O)n2C
NO

Which outcome was assigned to COc1ccc(S(=O)(=O)Nc2nnc(CC(C)C)s2)cc1 in this test?
NO

Tell me the assay call for N[C@@H](CSCCCO)C(=O)O please.
NO

Hello, I am checking results. What call was entered for CC(C)(C)C(=O)NCCCC(=O)O ?
NO

What classification did Cc1cc(CC(=O)O)n(C)c1C(=O)c1ccc(Cl)cc1 end up with in this test?
NO

Kindly provide the recorded test outcome for the following molecule: CCCCN1CCCC[C@H]1C(=O)Nc1c(C)cccc1C
NO

Would you mind telling me which call this test gave CCOc1ccc2ccccc2c1C(=O)N[C@@H]1C(=O)N2[C@@H]1SC(C)(C)[C@@H]2C(=O)O ?
NO
